# credit: patent US20220056125A1

- target_or_test_system: T1, human PAR-2 (human, UniProt P55085 26-397)
- T1 sequence: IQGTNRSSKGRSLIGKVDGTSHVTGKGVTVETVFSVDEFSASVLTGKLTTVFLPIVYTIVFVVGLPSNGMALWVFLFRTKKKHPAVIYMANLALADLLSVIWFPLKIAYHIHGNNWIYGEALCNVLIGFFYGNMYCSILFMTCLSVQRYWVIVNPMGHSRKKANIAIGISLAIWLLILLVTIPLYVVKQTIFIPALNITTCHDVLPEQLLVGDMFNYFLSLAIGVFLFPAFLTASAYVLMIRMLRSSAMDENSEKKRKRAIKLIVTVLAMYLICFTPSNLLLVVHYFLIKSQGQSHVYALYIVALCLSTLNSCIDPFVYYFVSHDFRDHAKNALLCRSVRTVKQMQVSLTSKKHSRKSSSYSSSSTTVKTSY
- measurement_description: cell-based or functional assay
Overview of recorded PAR-2 β-arrestin cell based assay IC50, 2 µM SLIGKV for various binders

P24E1102 (antibody, human IgG4 S228P, kappa, V domains shown, human IgG4 S228P K447del / kappa; also called Anti-PAR-2 (P24E1102); TEV-56192 P24E1102) VH: QVQLVQSGAEVKKPGSSVKVSCKASGFSLSSYAISWVRQAPGQGLEWMGVIWGNQNVYYAQKFQGRVTITADESTSTAYMELSSLRSEDTAVYYCARWKGYKDYPFDYWGQGTLVTVSS VL: EIVLTQSPATLSLSPGERATLSCRASQNVYKWLDWYQQKPGQAPRLLIYNANTRATGIPARFSGSGSGRDFTLTISSLEPEDFAVYYCQQHHSGWTFGGGTKVEIKR : 1.4 nM
P24E915 (antibody, human IgG4 S228P, kappa, V domains shown) VH: QVQLVQSGAEVKKPGSSVKVSCKASGFSLSSYAISWVRQAPGQGLEWMGVIWGNGNTYYAQKFQGRVTITADESTSTAYMELSSLRSEDTAVYYCARWKGYKDYPFDYWGQGTLVTVSS VL: EIVLTQSPATLSLSPGERATLSCKASQNVYKWLDWYQQKPGQAPRLLIYNAYSLATGIPARFSGSGSGRDFTLTISSLEPEDFAVYYCQQHNSGWTFGGGTKVEIKR : 1.16 nM

Note: attention shifts to another entry.
Q: Need PAR-2 β-arrestin cell based assay IC50, 2 µM SLIGKV, item P24E284 (antibody, human IgG4 S228P, kappa, V domains shown) VH: QVQLVQSGAEVKKPGSSVKVSCKASGFSLNSYAVIWVRQAPGQGLEWMGVIWGNGNTYYAQKFQGRVTITADESTSTAYMELSSLRSEDTAVYYCARWRGYKDYPFDYWGQGTLVTVSS VL: EIVLTQSPATLSLSPGERATLSCRASQNIYKYLDWYQQKPGQAPRLLIYNTNSLATGIPARFSGSGSGRDFTLTISSLEPEDFAVYYCLQHNSGWTFGGGTKVEIKR
Result: 2.5 nM
